Molecular target: SST2 (Homo sapiens, UniProt P30874)
Construct: host or cells: PathHunter CHO-K1 SST2 cells
Sequence (P30874 whole entry): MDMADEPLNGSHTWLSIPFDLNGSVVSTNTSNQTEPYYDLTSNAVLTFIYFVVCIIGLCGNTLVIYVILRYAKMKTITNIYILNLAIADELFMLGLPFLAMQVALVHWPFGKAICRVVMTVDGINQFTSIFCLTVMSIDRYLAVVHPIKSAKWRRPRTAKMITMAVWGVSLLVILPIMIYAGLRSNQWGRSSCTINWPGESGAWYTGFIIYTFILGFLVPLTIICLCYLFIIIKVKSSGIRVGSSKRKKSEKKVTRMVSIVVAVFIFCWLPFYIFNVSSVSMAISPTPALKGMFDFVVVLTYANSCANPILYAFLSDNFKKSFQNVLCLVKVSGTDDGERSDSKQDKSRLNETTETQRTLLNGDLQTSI
Assay: PathHunter CHO-K1 SST2 Internalization Assay
Format: cell-based
Details: PathHunter CHO-K1 SST2 cells; 90 min at 37 C; luminescence; read-out: Internalization EC50
property name: EC50 (nM)
Could you give me the number in nM? Just the number is fine.

Report EC50 for CC[C@H](C)[C@@H]([C@@H](CC(=O)N1CCC[C@H]1[C@H](OC)[C@@H](C)C(=O)N[C@H](C)[C@@H](O)c1ccccc1)OC)N(C)C(=O)[C@@H](NC(=O)[C@H](C(C)C)N(C)C(=O)OCc1ccc(NC(=O)[C@H](CCCNC(N)=O)NC(=O)[C@@H](NC(=O)[C@H](CCC(N)=O)NC(=O)CCOCCOCCOCCOCCC(=O)NCCNc2ncc(-c3cc(C)cc(F)c3)c(N3CCC(N)CC3)c2-c2nc3ccc(Cl)cc3[nH]2)C(C)C)c(OCCN)c1)C(C)C [Compound 26] tested on SST2 (Homo sapiens, UniProt P30874).
12

---

Biological target: SST2 (Homo sapiens, UniProt P30874)
Construct: host or cells: PathHunter CHO-K1 SST2 cells
Assay: PathHunter CHO-K1 SST2 Internalization Assay
Type: cell-based
Conditions: PathHunter CHO-K1 SST2 cells; 90 min at 37 C; luminescence; read-out: Internalization EC50
Experimental: NDCs of the present invention were assessed in vitro using the human PathHunter CHO-K1 SST2 β-arrestin2 and PathHunter CHO-K1 SST2 Internalization Assays from DiscoverX. The CHO-K cells were seeded in 20 μLs of cell culture medium in a white-walled 384 well tissue culture-compatible plate at a density of 2500 cells/well. […] Luminescence was measured using a Tecan plate reader. […]
property name: pEC50
Just the number, please; pEC50 means minus log10 of the concentration in mol/L.

pEC50 for CC[C@H](C)[C@@H]([C@@H](CC(=O)N1CCC[C@H]1[C@H](OC)[C@@H](C)C(=O)N[C@H](C)[C@@H](O)c1ccccc1)OC)N(C)C(=O)[C@@H](NC(=O)[C@H](C(C)C)N(C)C(=O)OCc1ccc(NC(=O)[C@H](C)NC(=O)[C@@H](NC(=O)CCOCCC(=O)NCCNc2ncc(-c3cc(C)cc(F)c3)c(N3CCC(N)CC3)c2-c2nc3ccc(F)cc3[nH]2)C(C)C)c(O[C@@H]2O[C@H](C(=O)O)[C@@H](O)[C@H](O)[C@H]2O)c1)C(C)C ?
8.36

---

Target: SST2 (Homo sapiens, UniProt P30874)
Construct: host or cells: PathHunter CHO-K1 SST2 cells
Experiment: PathHunter CHO-K1 SST2 Internalization Assay
Type: cell-based
Details: PathHunter CHO-K1 SST2 cells; 90 min at 37 C; luminescence; read-out: Internalization EC50
property name: pEC50
Just the number, please; pEC50 means minus log10 of the concentration in mol/L.

molecule	pEC50
CC[C@H](C)[C@@H]([C@@H](CC(=O)N1CCC[C@H]1[C@H](OC)[C@@H](C)C(=O)N[C@H](C)[C@@H](O)c1ccccc1)OC)N(C)C(=O)[C@@H](NC(=O)[C@H](C(C)C)N(C)C(=O)OCc1ccc(NC(=O)[C@H](CCCNC(N)=O)NC(=O)[C@@H](NC(=O)CCOCCC(=O)NCCNc2ncc(-c3cc(C)cc(F)c3)c(N3CCC(N)CC3)c2-c2nc3ccc(Cl)cc3[nH]2)C(C)C)c(O[C@@H]2O[C@H](C(=O)N3CCNCC3)[C@@H](O)[C@H](O)[C@H]2O)c1)C(C)C [Compound 222]	8.37

Then there is this molecule:
pEC50 for CC[C@H](C)[C@@H]([C@@H](CC(=O)N1CCC[C@H]1[C@H](OC)[C@@H](C)C(=O)N[C@H](C)[C@@H](O)c1ccccc1)OC)N(C)C(=O)[C@@H](NC(=O)[C@H](C(C)C)N(C)C(=O)OCc1ccc(NC(=O)[C@H](CCCNC(N)=O)NC(=O)[C@@H](NC(=O)c2cc(NCCCCCC(=O)NCCNc3ncc(-c4cc(C)cc(F)c4)c(N4CCC(N)CC4)c3-c3nc4ccc(Cl)cc4[nH]3)cc(C(=O)NCC(=O)O)c2)C(C)C)cc1)C(C)C [Compound 154] ?
8.11

---

Target: human somatostatin receptor subtype 2 (Homo sapiens, UniProt P30874)
Construct: expressed in transfected cells
Sequence (P30874 whole entry): as above
Assay: Functional assay for SSTR2 agonists (HTRF cAMP)
Assay type: cell-based
Conditions: CHO-K1 cells stably expressing human SST2; NKH477-stimulated cAMP; 20 min at 37 C; read-out: hSST2 cAMP Avg EC50
property name: pEC50
Just the number, please; pEC50 means minus log10 of the concentration in mol/L.

molecule	target or system	pEC50
CC[C@H](C)[C@@H]([C@@H](CC(=O)N1CCC[C@H]1[C@H](OC)[C@@H](C)C(=O)N[C@H](C)[C@@H](O)c1ccccc1)OC)N(C)C(=O)[C@@H](NC(=O)[C@H](C(C)C)N(C)C(=O)OCc1ccc(NC(=O)[C@H](CCCNC(N)=O)NC(=O)[C@@H](NC(=O)CCOCCOCCC(=O)NCCNc2ncc(-c3cc(C)cc(F)c3)c(N3CCC(N)CC3)c2-c2nc3ccc(Cl)cc3[nH]2)C(C)C)cc1C(=O)NCCCCCCCCCCC(=O)O)C(C)C [Compound 75]	human somatostatin receptor subtype 2 (Homo sapiens, UniProt P30874)	9.68

Then there is this molecule:
pEC50 for CC[C@H](C)[C@@H]([C@@H](CC(=O)N1CCC[C@H]1[C@H](OC)[C@@H](C)C(=O)N[C@H](C)[C@@H](O)c1ccccc1)OC)N(C)C(=O)[C@@H](NC(=O)[C@H](C(C)C)N(C)C(=O)OCc1ccc(NC(=O)[C@H](C)NC(=O)[C@@H](NC(=O)CCOCCC(=O)NCCNc2ncc(-c3cc(C)cc(F)c3)c(N3CC[C@H]4NCCO[C@@H]4C3)c2-c2nc3c(F)cc(F)cc3[nH]2)C(C)C)c(O[C@@H]2O[C@H](C(=O)O)[C@@H](O)[C@H](O)[C@H]2O)c1)C(C)C [Compound 114] ?
7.07

---

Target: SST2 (Homo sapiens, UniProt P30874)
Construct: host or cells: PathHunter CHO-K1 SST2 cells
Test: PathHunter CHO-K1 SST2 Internalization Assay
Assay type: cell-based
Details: PathHunter CHO-K1 SST2 cells; 90 min at 37 C; luminescence; read-out: Internalization EC50
property name: EC50 (nM)
Could you give me the number in nM? Just the number is fine.

Some solved entries appear below for comparison.
compound	target or system	EC50 (nM)
CC[C@H](C)[C@@H]([C@@H](CC(=O)N1CCC[C@H]1[C@H](OC)[C@@H](C)C(=O)N[C@H](C)[C@@H](O)c1ccccc1)OC)N(C)C(=O)[C@@H](NC(=O)[C@H](C(C)C)N(C)C(=O)OCc1ccc(NC(=O)[C@H](CCCNC(N)=O)NC(=O)[C@@H](NC(=O)c2cc(NCCOCCC(=O)NCCNc3ncc(-c4cc(C)cc(F)c4)c(N4CCC(N)CC4)c3-c3nc4ccc(Cl)cc4[nH]3)cc(C(=O)NCCCC(=O)O)c2)C(C)C)cc1)C(C)C	SST2 (Homo sapiens, UniProt P30874)	9.9
CC[C@H](C)[C@@H]([C@@H](CC(=O)N1CCC[C@H]1[C@H](OC)[C@@H](C)C(=O)N[C@H](C)[C@@H](O)c1ccccc1)OC)N(C)C(=O)[C@@H](NC(=O)[C@H](C(C)C)N(C)C(=O)OCc1ccc(NC(=O)[C@H](C)NC(=O)[C@@H](NC(=O)CCOCCOCCOCCOCCC(=O)NCCNc2ncc(-c3cc(C)cc(F)c3)c(N3CCC(N)CC3)c2-c2nc3ccc(Cl)cc3[nH]2)C(C)C)cc1C(=O)NCC(=O)O)C(C)C	SST2 (Homo sapiens, UniProt P30874)	5.6
CC[C@H](C)[C@@H]([C@@H](CC(=O)N1CCC[C@H]1[C@H](OC)[C@@H](C)C(=O)N[C@H](C)[C@@H](O)c1ccccc1)OC)N(C)C(=O)[C@@H](NC(=O)[C@H](C(C)C)N(C)C(=O)OCc1ccc(NC(=O)[C@H](C)NC(=O)[C@@H](NC(=O)C[C@@H](N)C(=O)NCCOCCC(=O)NCCNc2ncc(-c3cc(C)cc(F)c3)c(N3CCC(NC)CC3)c2-c2nc3ccc(Cl)cc3[nH]2)C(C)C)c(O[C@@H]2O[C@H](C(=O)O)[C@@H](O)[C@H](O)[C@H]2O)c1)C(C)C [Compound 135]	SST2 (Homo sapiens, UniProt P30874)	3.6
CC[C@H](C)[C@@H]([C@@H](CC(=O)N1CCC[C@H]1[C@H](OC)[C@@H](C)C(=O)N[C@H](C)[C@@H](O)c1ccccc1)OC)N(C)C(=O)[C@@H](NC(=O)[C@H](C(C)C)N(C)C(=O)OCc1ccc(NC(=O)[C@H](CCCNC(N)=O)NC(=O)[C@@H](NC(=O)CCOCCC(=O)NCCNc2ncc(-c3cc(C)cc(F)c3)c(N3CCC(N)CC3)c2-c2nc3ccc(Cl)cc3[nH]2)C(C)C)c(O[C@@H]2O[C@H](C(=O)N3CCOCC3)[C@@H](O)[C@H](O)[C@H]2O)c1)C(C)C	SST2 (Homo sapiens, UniProt P30874)	2.8

Then there is this compound:
EC50 for CC[C@H](C)[C@@H]([C@@H](CC(=O)N1CCC[C@H]1[C@H](OC)[C@@H](C)C(=O)N[C@H](C)[C@@H](O)c1ccccc1)OC)N(C)C(=O)[C@@H](NC(=O)[C@H](C(C)C)N(C)C(=O)OCc1ccc(NC(=O)[C@H](C)NC(=O)[C@@H](NC(=O)[C@H](CCc2nnn[nH]2)NC(=O)CCOCCC(=O)NCCNc2ncc(-c3cc(C)cc(F)c3)c(N3CCC(N)CC3)c2-c2nc3ccc(Cl)cc3[nH]2)C(C)C)cc1C(=O)NCCN)C(C)C ?
5.6
